These entries and their values trace back to PubChem BioAssay.

- protocol details: inhibitors of the yeast RAM network, pilot screen, dse1pr::URA3 reporter, 5-FOA selection (AID 869);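 note: 0% = DMSO wells with no growth and 100% = 10 µM 1-NA-PP1 with full growth; RAM network block rescues cells from 5-FOA so hits raise OD615 growth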
- assay setup: S. cerevisiae dse1pr::URA3 5-FOA growth, OD615, 2 d; at 10 µM; active compounds read high; strain carries analog-sensitive mutant Cbk1 kinase
Exercise: state measured inhibition for each of the compounds provided.
// return numeric value only (unit: %, not printed)

Ask: Field request: inhibition | item: `Cc1nn(C)c(C)c1S(=O)(=O)N(CC(=O)NCCN1CCOCC1)c1ccc(C(C)C)cc1`
Result: 1.83

Ask: Now the compound `O=C(NCCc1csc(-c2cccnc2)n1)c1ccco1`
Result: 0.97

Ask: Now the compound `Cc1ccc(CN2C(=O)/C(=C3\SC(N4CCOCC4)=NC3=O)c3cc(Br)ccc32)cc1`
Result: 0.615

Ask: Now the compound `O=C(COCCOCC(=O)N(c1ccccn1)C1CCCCC1)N(c1ccccn1)C1CCCCC1`
Result: 1.31

Ask: Now the compound O=C1CC(c2ccccc2)CC(O)=C1C=NCCN1CCNCC1 (stereo unspecified)
Result: -0.42

Ask: Now the compound `N#Cc1ccc(Sc2nc3ccccc3[nH]2)cc1C#N`
Result: 2.44

Ask: Now the compound `COCCn1c(CN(C)Cc2ccccc2)nc2c1c(=O)n(C)c(=O)n2C`
Result: 3.04

Ask: Now the compound `COc1ccc(Cl)cc1Nc1nc(N2CCCC2)nc(N2CCCC2)n1`
Result: 0.095

Ask: Now the compound `Cc1noc(C)c1CSc1nnc(-c2cc(Cl)ccc2Cl)n1N`
Result: 1.9

Ask: Now the compound Cc1c(NS(=O)(=O)CC23CCC(CC2=O)C3(C)C)c(=O)n(-c2ccccc2)n1C (stereo unspecified)
Result: 2.22

Ask: Now the compound `CCOC(=O)c1ccc(Nc2cc(C)nc(-c3ccccc3O)n2)cc1`
Result: -0.345
